Measured values drawn from the supplement of paper PMC8728848 for this set.

biological target: Fuc(a1-2)[GalNAc(a1-3)]Gal(b1-3)GlcNAc; assay: glycan array binding signal (z-score within array); higher = stronger binding; settings: glycan notation: IUPAC condensed, linker removed
Only a selection was taken, and the strongest signals are over-represented in it overall.
Decision: glycan array binding signal (z-score) compared against -0.1; not below it gives Fulfilled, below it gives Not fulfilled.

# example entries with known answers
Qu. Entry SLR2P3F12 (Tachypleus tridentatus), TAL2_TACTR (protein) MEKGTPPTHDSDNWMGRAKKIGNGGWNQFQFLFFDPNGYLYAVSKDKLYKASPPQSDTDNWIARATEIGSGGWSGFKSLFFHPNGYLYAVHGQRLYKALPPVSNQD : is its glycan array binding signal (z-score) no less than -0.1?
Ans. Fulfilled

Qu. Entry Si Bti9 1b-HA (Solanum lycopersicum) (protein) MFESRPRSVLSLGVFVILVYLSSVPLPVNSQCNRGCDLALASFYVWRGSNLTLISEMFSTSIADIVSYNNRDNIPNQDSVIAGTRINIPFRCDCLNDGEVLGHAFPYRVKSGDTYDLVARNYSDLTTAQWMMKFNSYPENNIPNTVNLSVVVNCSCGNSDVSKDFGLFVTYPVRAEDNLTSVASAANVSEDIIRRYNPAAVSILDIGQGIIYIPGRDRNGNFPPLPTSTDGLSGGAKAPLFFNPAFLYKVVELKLAGRSRTSGYPYDVPDYAGYPYDVPDYALEVLFQ : is its glycan array binding signal (z-score) no less than -0.1?
Ans. Not fulfilled

---
Qu. Entry TIM1 (protein) ADGIQSVKVGGEAGPSVTLPCHYSGAVTSMCWNRGSCSLFTCQNGIVWTNGTHVTYRKDTRYKLLGDLSRRDVSLTIENTAVSDSGVYCCRVEHRGWFNDMKITVSLEIVPPHHHHHH : is its glycan array binding signal (z-score) no less than -0.1?
Ans. Not fulfilled

Qu. Entry CM2 (Cordyceps militaris) (protein) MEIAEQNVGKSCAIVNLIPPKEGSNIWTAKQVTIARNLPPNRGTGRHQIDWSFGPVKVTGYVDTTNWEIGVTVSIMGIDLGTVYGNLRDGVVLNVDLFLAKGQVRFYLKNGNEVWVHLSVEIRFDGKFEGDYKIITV : is its glycan array binding signal (z-score) no less than -0.1?
Ans. Fulfilled

Qu. Entry CD83 (Homo sapiens) (protein) MSRGLQLLLLSCAYSLAPATPEVKVACSEDVDLPCTAPWDPQVPYTVSWVKLLEGGEERMETPQEDHLRGQHYHQKGQNGSFDAPNERPYSLKIRNTTSCNSGTYRCTLQDPDGQRNLSGKVILRVTGCPAQRKEETFKKYRAETSEQKLISEEDLSRGSDDDDKAEPRGP : is its glycan array binding signal (z-score) no less than -0.1?
Ans. Not fulfilled

Qu. Entry Gal 2 (Homo sapiens), P05162 (protein) MTGELEVKNMDMKPGSTLKITGSIADGTDGFVINLGQGTDKLNLHFNPRFSESTIVCNSLDGSNWGQEQREDHLCFSPGSEVKFTVTFESDKFKVKLPDGHELTFPNRLGHSHLSYLSVRGGFNMSSFKLKE : is its glycan array binding signal (z-score) no less than -0.1?
Ans. Fulfilled
